- Test target: T1, ALK5 ECD (Homo sapiens, UniProt P36897)
- T1 chain: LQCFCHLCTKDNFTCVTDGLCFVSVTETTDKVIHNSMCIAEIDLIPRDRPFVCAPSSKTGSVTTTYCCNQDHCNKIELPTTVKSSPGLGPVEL
- Protocol description: BLI
Readout label: Kd (nM)

{"columns": ["Binder", "Reported value"],
 "data": [
  ["BMP-7 (protein) STGSKQRSQNRSKTPKNQEALRMANVAENSSSDQRQACKKHELYVSFRDLGWQDWIIAPEGYAAYYCEGECAFPLNSYMNATNHAIVQTLVHFINPETVPKPCCAPTQLNAISVLYFDDSSNVILKKYRNMVVRACGCH", 22.6]
]}

[P] BMP-4 (protein) SPKHHSQRARKKNKNCRRHSLYVDFSDVGWNDWIVAPPGYQAFYCHGDCPFPLADHLNSTNHAIVQTLVNSVNSSIPKACCVPTELSAISMLYLDEYDKVVLKNYQEMVVEGCGCR
[Q] BMP-2 (protein) QAKHKQRKRLKSSCKRHPLYVDFSDVGWNDWIVAPPGYHAFYCHGECPFPLADHLNSTNHAIVQTLVNSVNSKIPKACCVPTELSAISMLYLDENEKVVLKNYQDMVVEGCGCR
[R] BMP-9 (protein) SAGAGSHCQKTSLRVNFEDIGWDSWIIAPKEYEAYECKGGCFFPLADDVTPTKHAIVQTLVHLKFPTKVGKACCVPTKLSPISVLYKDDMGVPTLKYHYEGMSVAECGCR
*Q* Could you please sort these 3 entries by Kd from high to low? Reply with the labels, ordered as the question asks.
*A* R, P, Q
(R: 51 nM, P: 21.9 nM, Q: 5.8 nM)
